Below is a list of entries, each paired with its recorded IC50 value.
# STUDY TARGET: CK2A1 (Homo sapiens, UniProt P68400)
# Construct: purchased Eurofins
# Sequence (P68400 whole entry): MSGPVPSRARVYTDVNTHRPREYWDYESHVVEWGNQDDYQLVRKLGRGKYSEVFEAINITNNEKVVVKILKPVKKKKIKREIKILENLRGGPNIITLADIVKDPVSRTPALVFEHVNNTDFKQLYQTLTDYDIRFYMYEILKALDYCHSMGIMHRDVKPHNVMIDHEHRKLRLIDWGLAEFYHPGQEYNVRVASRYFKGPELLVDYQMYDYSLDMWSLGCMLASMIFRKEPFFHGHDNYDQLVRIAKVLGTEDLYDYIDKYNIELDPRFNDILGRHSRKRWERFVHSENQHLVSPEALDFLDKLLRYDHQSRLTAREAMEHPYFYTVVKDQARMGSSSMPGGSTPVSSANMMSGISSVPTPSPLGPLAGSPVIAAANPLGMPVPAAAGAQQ
# ASSAY TEXT: Radiometric kinase assay (Eurofins), CK2A1
# Assay type: biochemical
# EXPERIMENTAL PARAMETERS: Table 5; read-out: CK2A1 RAD IC50

# MOLECULE, STUDY TARGET, VALUE UNIT, QUALIFIER SIGN, IC50
records = [
    ("COc1nc(-c2cc(=O)c3cc(Br)ccc3o2)ccc1O [Compound 1064A]", "CK2A1 (Homo sapiens, UniProt P68400)", "nM", "=", 124),
    ("COc1c(Br)cc2c(=O)cc(-c3ccc(O)c(C4CC4)c3)oc2c1Br [Compound 1140A]", "CK2A1 (Homo sapiens, UniProt P68400)", "nM", ">", 5000),
    ("COc1cc2oc(-c3ccc(O)c(OC)n3)cc(=O)c2cc1Br [Compound 1058A]", "CK2A1 (Homo sapiens, UniProt P68400)", "nM", "=", 2730),
    ("COc1nc(-c2cc(=O)c3cc(Br)c(OC)c(Br)c3o2)ccc1O [Compound 1041A]", "CK2A1 (Homo sapiens, UniProt P68400)", "nM", "=", 1890),
    ("COc1cc(-c2cc(=O)c3cc(Br)c(OC)c(Br)c3o2)ncc1O [Compound 1040A]", "CK2A1 (Homo sapiens, UniProt P68400)", "nM", "=", 52),
    ("O=c1cc(-c2ccc(O)c(C3CC3)c2)oc2c(Br)cc(Br)cc12 [Compound 1132A]", "CK2A1 (Homo sapiens, UniProt P68400)", "nM", ">", 5000),
    ("O=c1cc(-c2ccc(O)c(O)c2)oc2c(Br)cc(Br)cc12 [Compound 1004A]", "CK2A1 (Homo sapiens, UniProt P68400)", "nM", "=", 845),
]

The measured values listed here are drawn from patent US20260199350A1.
